This collection of values is drawn from the supplement of paper PMC10567573.

B1: ZNF449 (parent)
chain: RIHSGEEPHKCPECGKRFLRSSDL

Variants of: B1
assay.name: protein stability index of a GFP-peptide fusion (GPS, HEK-293T) (PSI 1-6); higher = more stable;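 note: lentivirally expressed fusions sorted by FACS into six bins by GFP to DsRed ratio, PSI derived from sequencing read proportions per bin multiplied by bin number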
measurement.parameters: c terminus: a fixed tail appended
// label = yes if protein stability index is not less than 3, otherwise no

stdin: hey, is protein stability index for this one >= 3? "G5L"
stdout: yes

Further cases:
stdin: Reported protein stability index at or above 3? "R17M"
stdout: yes
